Please provide measured solvation free energy, 298 K for the entries that follow.
test: solvent given as SMILES; conditions: in CC(C)CCO
// note: answer is a bare numeric in kcal/mol

# input For the molecule shown here, Cc1ccccc1C(=O)O , give the reported solvation free energy, 298 K.
# output -8.95

# input For the molecule shown here, c1cc2c3c(cccc3c1)CC2 , give the reported solvation free energy, 298 K.
# output -8.43

# input For the molecule shown here, c1ccc2c(c1)-c1cccc3cccc-2c13 , give the reported solvation free energy, 298 K.
# output -11.2

# input For the molecule shown here, O=C(O)c1cccc(Cl)c1 , give the reported solvation free energy, 298 K.
# output -10.5

# input For the molecule shown here, CN(C)C(=O)Nc1ccc(Cl)c(Cl)c1 , give the reported solvation free energy, 298 K.
# output -14.6

# input For the molecule shown here, O=C(O)c1ccc([N+](=O)[O-])cc1 , give the reported solvation free energy, 298 K.
# output -11.9

# input For the molecule shown here, O=C1c2ccccc2C(=O)c2c(Cl)cccc21 , give the reported solvation free energy, 298 K.
# output -12.7

# input For the molecule shown here, O=[N+]([O-])c1ccc(CCl)cc1 , give the reported solvation free energy, 298 K.
# output -8.34

# input For the molecule shown here, CC(C)CC(C)C , give the reported solvation free energy, 298 K.
# output -3.6

# input For the molecule shown here, O=C(O)c1cc([N+](=O)[O-])cc([N+](=O)[O-])c1 , give the reported solvation free energy, 298 K.
# output -13.8

# input For the molecule shown here, Clc1ccccc1 , give the reported solvation free energy, 298 K.
# output -5.12

# input For the molecule shown here, C=CCC , give the reported solvation free energy, 298 K.
# output -1.99

# input For the molecule shown here, CCCC(C)C , give the reported solvation free energy, 298 K.
# output -3.23

# input For the molecule shown here, O=[N+]([O-])c1cc(Cl)ccc1Cl , give the reported solvation free energy, 298 K.
# output -8.13

# input For the molecule shown here, c1ccc2c(c1)Nc1ccccc1S2 , give the reported solvation free energy, 298 K.
# output -12.8

* * *

assay: solvent given as SMILES; details: in CC(O)CO
solvation free energy, 298 K strictly under -4 kcal/mol means Y; at -4 kcal/mol or over means N.

# input Here's an entry: c1ccccc1 . Is its solvation free energy, 298 K below -4 kcal/mol?
# output N

# input Here's an entry: Cc1ccc(C)cc1 . Is its solvation free energy, 298 K below -4 kcal/mol?
# output Y

# input Here's an entry: Cc1ccccc1C . Is its solvation free energy, 298 K below -4 kcal/mol?
# output Y

# input Here's an entry: Clc1ccccc1 . Is its solvation free energy, 298 K below -4 kcal/mol?
# output Y

# input Here's an entry: Cc1ccccc1 . Is its solvation free energy, 298 K below -4 kcal/mol?
# output N

# input Here's an entry: Fc1ccccc1 . Is its solvation free energy, 298 K below -4 kcal/mol?
# output N

# input Here's an entry: CC(C)(C)Cl . Is its solvation free energy, 298 K below -4 kcal/mol?
# output N

* * *

test: solvent given as SMILES; settings: in C=CCCCCCCC=C
Please provide measured solvation free energy, 298 K for the entries that follow.
// note: answer is a bare numeric in kcal/mol

# input For the compound shown here, CC12CCC(=O)C=C1CCC1C2C(O)CC2(C)C1CCC2(O)C(=O)C(O)C(CCCCC(N)=O)C(N)=O (stereo not drawn) , give the reported solvation free energy, 298 K.
# output -29.8

# input For the compound shown here, CNCCc1ccc(OC)cc1 , give the reported solvation free energy, 298 K.
# output -9.47

# input For the compound shown here, CN(C)CCc1ccc(O)cc1 , give the reported solvation free energy, 298 K.
# output -10.1

# input For the compound shown here, COC(C)=O , give the reported solvation free energy, 298 K.
# output -3.23

# input For the compound shown here, CNCCc1ccc(O)cc1 , give the reported solvation free energy, 298 K.
# output -9.48

# input For the compound shown here, NCCc1ccccc1 , give the reported solvation free energy, 298 K.
# output -7.41

# input For the compound shown here, CC12CCC(=O)C=C1CCC1C2C(O)CC2(C)C1CCC2(O)C(=O)CO (stereo not drawn) , give the reported solvation free energy, 298 K.
# output -21.7

# input For the compound shown here, CCCC(=O)O , give the reported solvation free energy, 298 K.
# output -4.39

* * *

experiment: solvent given as SMILES; details: in O
Short version: solvation free energy, 298 K at least -7 kcal/mol is TRUE, less is FALSE.

# input API: above_or_equal(metric=solvation free energy, 298 K, cutoff=-7 kcal/mol) for item CC(C)C=O
# output TRUE

# input API: above_or_equal(metric=solvation free energy, 298 K, cutoff=-7 kcal/mol) for item CCNc1nc(NC(C)C(C)C)nc(SC)n1 (stereo not given)
# output FALSE

# input API: above_or_equal(metric=solvation free energy, 298 K, cutoff=-7 kcal/mol) for item CC(=O)Nc1ccccc1
# output FALSE

# input API: above_or_equal(metric=solvation free energy, 298 K, cutoff=-7 kcal/mol) for item COC(=O)CCl
# output TRUE

# input API: above_or_equal(metric=solvation free energy, 298 K, cutoff=-7 kcal/mol) for item c1ccoc1
# output TRUE

# input API: above_or_equal(metric=solvation free energy, 298 K, cutoff=-7 kcal/mol) for item CC(=O)c1c(C)[nH]n(-c2ccccc2)c1=O
# output FALSE

# input API: above_or_equal(metric=solvation free energy, 298 K, cutoff=-7 kcal/mol) for item Cc1nc(N(C)C)nc(OC(=O)N(C)C)c1C
# output FALSE

# input API: above_or_equal(metric=solvation free energy, 298 K, cutoff=-7 kcal/mol) for item CCCCCCCC=O
# output TRUE

# input API: above_or_equal(metric=solvation free energy, 298 K, cutoff=-7 kcal/mol) for item CSc1nc(N=[N+]=[N-])nc(NC(C)C)n1
# output FALSE

# input API: above_or_equal(metric=solvation free energy, 298 K, cutoff=-7 kcal/mol) for item CCCOC(=O)c1ccccc1O
# output TRUE

# input API: above_or_equal(metric=solvation free energy, 298 K, cutoff=-7 kcal/mol) for item CCC(C)C
# output TRUE

# input API: above_or_equal(metric=solvation free energy, 298 K, cutoff=-7 kcal/mol) for item Cc1ccc2ccccc2c1
# output TRUE

# input API: above_or_equal(metric=solvation free energy, 298 K, cutoff=-7 kcal/mol) for item CCCCS
# output TRUE

# input API: above_or_equal(metric=solvation free energy, 298 K, cutoff=-7 kcal/mol) for item S=C=S
# output TRUE

# input API: above_or_equal(metric=solvation free energy, 298 K, cutoff=-7 kcal/mol) for item C=CCCCCCCCC
# output TRUE

# input API: above_or_equal(metric=solvation free energy, 298 K, cutoff=-7 kcal/mol) for item CC1=CCC2CC1C2(C)C (stereo not given)
# output TRUE

# input API: above_or_equal(metric=solvation free energy, 298 K, cutoff=-7 kcal/mol) for item C=CCCC
# output TRUE

# input API: above_or_equal(metric=solvation free energy, 298 K, cutoff=-7 kcal/mol) for item Clc1ccc(Br)cc1
# output TRUE

# input API: above_or_equal(metric=solvation free energy, 298 K, cutoff=-7 kcal/mol) for item Nc1cccc2ccccc12
# output FALSE

# input API: above_or_equal(metric=solvation free energy, 298 K, cutoff=-7 kcal/mol) for item O=NN1CCOCC1
# output FALSE

# input API: above_or_equal(metric=solvation free energy, 298 K, cutoff=-7 kcal/mol) for item CC(C)CC(C)C
# output TRUE

# input API: above_or_equal(metric=solvation free energy, 298 K, cutoff=-7 kcal/mol) for item CCCCCCCOC(=O)c1ccccc1C(=O)OCCCCCC
# output TRUE

# input API: above_or_equal(metric=solvation free energy, 298 K, cutoff=-7 kcal/mol) for item CN1C(C(=O)Nc2ccccn2)=C(O)c2ccccc2S1(=O)=O
# output FALSE

# input API: above_or_equal(metric=solvation free energy, 298 K, cutoff=-7 kcal/mol) for item CCCCN(CCCC)N=O
# output TRUE

# input API: above_or_equal(metric=solvation free energy, 298 K, cutoff=-7 kcal/mol) for item CCCCCCCC(=O)c1c(C)[nH]n(-c2ccccc2)c1=O
# output FALSE

# input API: above_or_equal(metric=solvation free energy, 298 K, cutoff=-7 kcal/mol) for item CC(C)=CC(C)(C)C
# output TRUE

# input API: above_or_equal(metric=solvation free energy, 298 K, cutoff=-7 kcal/mol) for item CCCCN(CC)c1c([N+](=O)[O-])cc(C(F)(F)F)cc1[N+](=O)[O-]
# output TRUE

# input API: above_or_equal(metric=solvation free energy, 298 K, cutoff=-7 kcal/mol) for item CCCBr
# output TRUE

# input API: above_or_equal(metric=solvation free energy, 298 K, cutoff=-7 kcal/mol) for item O=C(O)c1cc([N+](=O)[O-])cc([N+](=O)[O-])c1
# output FALSE

# input API: above_or_equal(metric=solvation free energy, 298 K, cutoff=-7 kcal/mol) for item O=C(O)CCCCC(=O)O
# output FALSE

# input API: above_or_equal(metric=solvation free energy, 298 K, cutoff=-7 kcal/mol) for item CN(C)C(=O)Nc1ccc(Cl)cc1
# output FALSE

# input API: above_or_equal(metric=solvation free energy, 298 K, cutoff=-7 kcal/mol) for item CC1CCC(C)(C)C1 (stereo not given)
# output TRUE

# input API: above_or_equal(metric=solvation free energy, 298 K, cutoff=-7 kcal/mol) for item CC(C)=CCCC1(C)C2CC3C(C2)C31C (stereo not given)
# output TRUE

The origin of these recorded values is the CombiSolv-Exp solvation set (Vermeire and Green 2021).
